- protocol: Proteolytic resistance of Av3b mutants during production-strain fermentation (rpHPLC)
- Assay type: physicochemical
- conditionInfo: mutant strain fermentation at pH 6.5, 140 hours, rpHPLC
Ends that are not written are not given here.
metricName: Degradation?

KSCCPCYWGGCPWGQNCYPEGCSGPKVI [Av3bM168]    Yes
KSCCPCYWGGCPWGQNCYPEGCSGPD (ends and bridges not checked; cysteine pairing not given here) [Av3bM100]    Yes
KSCCPCYWGGCPWGQNCYPEGCSGPKG [Av3bM148]    No
KSCCPCYWGGCPWGQNCYPEGCGGPG [Av3bM170]    No
KSCCPCYWGGCPWGQNCYPEGCSGPG (ends and bridges not checked; cysteine pairing not given here) [Av3bM103]    No
KSCCPCYWGGCPWGQNCYPEGCDGP (ends and bridges not checked; cysteine pairing not given here) [Av3bM172]    Yes
KSCCPCYWGGCPWGQNCYPEGCSGPT (ends and bridges not checked; cysteine pairing not given here) [Av3bM111]    Yes

----------
- protocol: Proteolytic resistance of Av3b mutants during production-strain fermentation (rpHPLC)
- Type: physicochemical
- conditionInfo: mutant strain fermentation at pH 6.5, 140 hours, rpHPLC
Ends that are not written are not given here.
metricName: Degradation?

KSCCPCYWGGCPWGQNCYPEGCDGPT (ends and bridges not checked; cysteine pairing not given here) [Av3bM157]    Yes
KSCCPCYWGGCPWGQNCYPEGCSGPR (ends and bridges not checked; cysteine pairing not given here) [Av3bM98]    No
KSCCPCYWGGCPWGQNCYPEGCSGPE (ends and bridges not checked; cysteine pairing not given here) [Av3bM101]    Yes
KSCCPCYWGGCPWGQNCYPEGCSGPH (ends and bridges not checked; cysteine pairing not given here) [Av3bM104]    Yes
KSCCPCYWGGCPWGQNCYPEGCSGGV (ends and bridges not checked; cysteine pairing not given here) [Av3bM146]    Yes
KSCCPCYWGGCPWGQNCYPEGCDGPG (ends and bridges not checked; cysteine pairing not given here) [Av3bM171]    Yes
KSCCPCYWGGCPWGQNCYPEGCTGPG (ends and bridges not checked; cysteine pairing not given here) [Av3bM169]    Yes
KSCCPCYWGGCPWGQNCYPEGCSGPA (ends and bridges not checked; cysteine pairing not given here) [Av3bM97]    Yes
KSCCPCYWGGCPWGQNCYPEGCDGPA (ends and bridges not checked; cysteine pairing not given here) [Av3bM156]    Yes
KSCCPCYWGGCPWGQNCYPEGCSGRV (ends and bridges not checked; cysteine pairing not given here) [Av3bM147]    Yes
KSCCPCYWGGCPWGQNCYPEGCSGPQ (ends and bridges not checked; cysteine pairing not given here) [Av3bM102]    Yes
KSCCPCYWGGCPWGQNCYPEGCSGPN (ends and bridges not checked; cysteine pairing not given here) [Av3bM99]    Yes
KSCCPCYWGGCPWGQNCYPEGCSGPKVG [Av3bM165]    No

----------
- protocol: Thermo-stability at 54° C. in pH 4.0 solution
- Format: physicochemical
- conditionInfo: pH 4.0 solution, up to 14 days
Ends that are not written are not given here.
metricName: thermo-stability at 54° C.

KSCCPCYWGGCPWGQNCYPEGCSGPG (ends and bridges not checked; cysteine pairing not given here) [Av3bM103]    not thermo-stable
KSCCPCYWGGCPWGQNCYPEGCSGPKVG [Av3bM165]    thermo-stable
KSCCPCYWGGCPWGQNCYPEGCSGPK [Av3b, reference compound]    thermo-stable
KSCCPCYWGGCPWGQNCYPEGCGGPG [Av3bM170]    thermo-stable
KSCCPCYWGGCPWGQNCYPEGCDGPK (ends and bridges not checked; cysteine pairing not given here) [Av3bM24]    not thermo-stable
